- Tested on: NCI/ADR-RES
- method-description: NCI tumour cell line growth inhibition, 48 h
Calls of active or inactive are those of the source. Rule as the data show it: active = GI50 up to about 1.1 µM and inactive = higher.
# GI50 annotations
observed-property: GI50

{"columns": ["molecule", "observed-property", "recorded-result"],
 "data": [
  ["C[C@@H]1OC(=O)/C(=C\\N(C)C)[C@H]2CC(=O)N(CCc3cn(S(=O)(=O)C(F)(F)F)c4ccccc34)C[C@H]12", "GI50", "> 100 µM (inactive)"],
  ["O=C(NC(OCc1ccccc1)(C(F)(F)F)C(F)(F)F)OCc1ccccc1", "GI50", "12.6 µM (inactive)"],
  ["COc1ccc(C2OC[C@H]3O[C@@H](OCc4ccccc4)[C@H](O)[C@@H](O)[C@@H]3O2)cc1 (stereo not given in full)", "GI50", "> 100 µM (inactive)"],
  ["CC(=O)OCC1OC(n2c(C#N)cc(=O)[nH]c2=O)CC1OC(C)=O (stereo not given)", "GI50", "> 100 µM (inactive)"],
  ["O=C1Nc2ccccc2C1Cc1ccc([N+](=O)[O-])cc1 (stereo not given)", "GI50", "> 100 µM (inactive)"]
]}

Recorded values, source ChEMBL document CHEMBL1201862.
